Measured values drawn from patent US11214803B2 for this set.

test system: Yap1 mRNA; assay: Antisense inhibition of human Yap1 in A-431 cells by cEt gapmers, single dose (Example 2, RTS4814); type: cell-based; settings: Table 6; A-431 cells, 5,000 cells per well, free uptake, 2,000 nM modified oligonucleotide, approx. 48 hours; RTS4814; normalized to RIBOGREEN; Yap1 mRNA relative to untreated control cells
Strand notation (5' to 3'): a small letter for the sugar, then the base; units joined by * are phosphorothioate-linked, units joined directly phosphodiester-linked; [ ] holds rarer units or linkages, { } end groups; capitals alone tell only the bases. k = constrained ethyl (cEt); [5mC] = 5-methylcytosine; d = 2'-deoxy (DNA)
Mark True for reported YAP1 (% UTC) of 90 % UTC or greater; mark False for anything smaller.

substance	label_class
716462 (kT*kT*kA*dA*dA*d[5mC]*dT*dA*d[5mC]*d[5mC]*dA*dG*dT*kG*kA*kA; antisense) [Compound 716462]	False
716567 (kG*kA*k[5mC]*dT*dA*dT*dA*d[5mC]*dA*dA*d[5mC]*dA*dG*kG*k[5mC]*k[5mC]; antisense) [Compound 716567]	True
716357 (k[5mC]*kG*k[5mC]*d[5mC]*d[5mC]*d[5mC]*dG*dG*d[5mC]*dT*d[5mC]*d[5mC]*dA*k[5mC]*kG*kG; antisense) [Compound 716357]	True
716411 (kT*k[5mC]*kT*dG*d[5mC]*dT*dG*dT*dG*dA*dG*dG*dG*k[5mC]*kA*kG; antisense) [Compound 716411]	True
716573 (kA*kG*kT*dT*dA*d[5mC]*dT*dA*d[5mC]*dT*dG*dT*dA*kA*kT*k[5mC]; antisense) [Compound 716573]	True
716525 (antisense k[5mC]*kA*k[5mC]*dA*dG*dT*dA*d[5mC]*dT*dG*d[5mC]*dT*dA*k[5mC]*kA*kA) [Compound 716525]	False
716489 (kA*kG*kT*dT*dA*dA*dT*dT*d[5mC]*dA*dT*dG*d[5mC]*kT*k[5mC]*kG; antisense) [Compound 716489]	False
716387 (kT*kA*kT*dG*dG*dT*dT*dT*dA*dT*dA*dT*dA*kG*kT*kA; antisense) [Compound 716387]	False

---

system: Yap1 mRNA; assay: Dose-dependent inhibition of human Yap1 in A-431 cells (Example 8, 10,000 cells per well, RTS4814); type: cell-based; conditions: 31.3 nM; A-431 cells, 10,000 cells per well, free uptake, approximately 48 hours, RTS4814
Strand notation (5' to 3'): a small letter for the sugar, then the base; units joined by * are phosphorothioate-linked, units joined directly phosphodiester-linked; [ ] holds rarer units or linkages, { } end groups; capitals alone tell only the bases. k = constrained ethyl (cEt); [5mC] = 5-methylcytosine; d = 2'-deoxy (DNA)
value_type: Yap1 mRNA, % UTC (% UTC)

>>> df
                                  substance  measurement
0  1076448 (k[5mC]*kT*kT*dA*dT*dA*dA*dT*dG*d[5mC]*dA*dA*dT*k[5mC]*k[5mC]*kT; antisense) [compound 1076448]           61
1  1076369 (antisense kT*kA*kT*dT*d[5mC]*dG*dG*dT*dA*dT*dT*dT*dT*k[5mC]*kT*kA) [compound 1076369]           60
2  1074443 (kT*k[5mC]*kA*dG*dA*d[5mC]*d[5mC]*dA*dG*dT*dA*dA*dA*kT*k[5mC]*kA; antisense) [compound 1074443]           69
3  1074409 (kG*kG*kA*dT*dT*dA*dA*dA*dG*dT*dA*dT*d[5mC]*kT*kT*kG; antisense) [compound 1074409]           60

---

YAP1 (% UT) values by entry
system: Yap1 mRNA; assay: Antisense inhibition of human Yap1 in SNU-449 cells by modified oligonucleotides, single dose (Example 5, RTS36584); type: cell-based; conditions: Table 51; Yap1 mRNA remaining as percent of untreated control (UT), SNU-449 cells, single dose
Strand notation (5' to 3'): a small letter for the sugar, then the base; units joined by * are phosphorothioate-linked, units joined directly phosphodiester-linked; [ ] holds rarer units or linkages, { } end groups; capitals alone tell only the bases. k = constrained ethyl (cEt); [5mC] = 5-methylcytosine; d = 2'-deoxy (DNA); m = 2'-O-methyl
value_type: YAP1 (% UT)

In [3]: df
Out[3]:
                                   substance  subject_of_test   value_type  measurement
 0  1200787 (kA*kA*kA*dT*dT*mG*dT*d[5mC]*dT*d[5mC]*dA*dT*dG*k[5mC]*k[5mC]*kT) [Compound 1200787]        Yap1 mRNA  YAP1 (% UT)      38 % UT
 1  1197270 (kT*kT*kA*dA*mA*dG*dT*dG*dT*dA*dT*dG*dT*k[5mC]*kA*kG) [Compound 1197270]        Yap1 mRNA  YAP1 (% UT)       2 % UT
 2  1197267 (kA*kT*kG*dT*mA*dA*dT*dA*dT*dT*dG*d[5mC]*dA*kA*kT*k[5mC]) [Compound 1197267]        Yap1 mRNA  YAP1 (% UT)      62 % UT
 3  1197237 (antisense kT*kA*kT*dA*mA*d[5mC]*dT*dG*dG*dG*d[5mC]*dA*dA*kA*kT*kT) [Compound 1197237]        Yap1 mRNA  YAP1 (% UT)      74 % UT
 4  1197308 (kA*kA*kT*dA*mU*dT*dG*d[5mC]*dA*dA*dT*d[5mC]*dT*kG*kT*k[5mC]; antisense) [Compound 1197308]        Yap1 mRNA  YAP1 (% UT)      49 % UT
 5  1197278 (kG*kA*k[5mC]*dT*mA*dA*dG*dT*dA*dA*dG*dG*dT*kT*kT*k[5mC]) [Compound 1197278]        Yap1 mRNA  YAP1 (% UT)      36 % UT
 6  1197251 (antisense kT*kT*kT*dG*mG*dA*dA*dG*dA*dT*d[5mC]*dT*dG*kA*kA*kA) [Compound 1197251]        Yap1 mRNA  YAP1 (% UT)      74 % UT
 7  1197259 (kA*kT*kA*dT*mG*dG*dT*dT*dT*dT*dG*dT*dG*kT*kG*kT) [Compound 1197259]        Yap1 mRNA  YAP1 (% UT)      59 % UT
 8  1197296 (kT*kG*k[5mC]*dT*mU*dT*dG*dG*dA*dA*dG*dA*dT*k[5mC]*kT*kG) [Compound 1197296]        Yap1 mRNA  YAP1 (% UT)      36 % UT
 9  1197252 (antisense k[5mC]*kT*kT*dT*mG*dG*dA*dA*dG*dA*dT*d[5mC]*dT*kG*kA*kA) [Compound 1197252]        Yap1 mRNA  YAP1 (% UT)      53 % UT
10  958499 (kA*kT*kT*dA*dG*dA*dG*dT*dA*dT*dG*dT*dG*kG*k[5mC]*kA) [Compound 958499]        Yap1 mRNA  YAP1 (% UT)       9 % UT
11  1197238 (antisense kA*kG*kG*dT*mA*dT*dA*dA*d[5mC]*dT*dG*dG*dG*k[5mC]*kA*kA) [Compound 1197238]        Yap1 mRNA  YAP1 (% UT)      43 % UT
12  1197300 (kG*kA*kT*dT*mU*dA*dG*dG*dA*dT*dG*d[5mC]*dA*kT*kG*kG; antisense) [Compound 1197300]        Yap1 mRNA  YAP1 (% UT)      42 % UT
13  1197310 (kT*kA*kT*dG*mU*dA*dA*dT*dA*dT*dT*dG*d[5mC]*kA*kA*kT; antisense) [Compound 1197310]        Yap1 mRNA  YAP1 (% UT)     109 % UT
14  1197290 (kG*kA*kG*dG*mU*dA*dT*dA*dA*d[5mC]*dT*dG*dG*kG*k[5mC]*kA) [Compound 1197290]        Yap1 mRNA  YAP1 (% UT)      37 % UT
15  1197298 (kA*kT*kA*dG*mU*dG*d[5mC]*dT*dT*dT*dG*dG*dA*kA*kG*kA) [Compound 1197298]        Yap1 mRNA  YAP1 (% UT)      46 % UT
16  1197266 (kT*kG*kT*dA*mA*dT*dA*dT*dT*dG*d[5mC]*dA*dA*kT*k[5mC]*kT) [Compound 1197266]        Yap1 mRNA  YAP1 (% UT)      31 % UT
17  1200784 (kT*kG*kT*d[5mC]*dT*mC*dA*dT*dG*d[5mC]*d[5mC]*dT*dT*kA*kT*kA; antisense) [Compound 1200784]        Yap1 mRNA  YAP1 (% UT)      19 % UT
18  1197239 (antisense kT*kG*kA*dG*mG*dT*dA*dT*dA*dA*d[5mC]*dT*dG*kG*kG*k[5mC]) [Compound 1197239]        Yap1 mRNA  YAP1 (% UT)      47 % UT
19  1197317 (kA*kG*kA*d[5mC]*mU*dA*dA*dG*dT*dA*dA*dG*dG*kT*kT*kT; antisense) [Compound 1197317]        Yap1 mRNA  YAP1 (% UT)      78 % UT
20  1197311 (kT*kT*kT*dA*mU*dG*dT*dA*dA*dT*dA*dT*dT*kG*k[5mC]*kA; antisense) [Compound 1197311]        Yap1 mRNA  YAP1 (% UT)      27 % UT
21  1200794 (kA*kG*kA*dG*dT*mA*dT*dG*dT*dG*dG*d[5mC]*dA*kA*kT*kA; antisense) [Compound 1200794]        Yap1 mRNA  YAP1 (% UT)      18 % UT
